Provenance of the data: patent US9260429B2

# TARGET SYSTEM: human recombinant serotonin (5-Hydroxytryptamine) 5-HT2A receptor (Homo sapiens)
# Construct: expressed in transfected cells; host or cells: CHO-K1 cells
# Sequence (P28223 whole entry): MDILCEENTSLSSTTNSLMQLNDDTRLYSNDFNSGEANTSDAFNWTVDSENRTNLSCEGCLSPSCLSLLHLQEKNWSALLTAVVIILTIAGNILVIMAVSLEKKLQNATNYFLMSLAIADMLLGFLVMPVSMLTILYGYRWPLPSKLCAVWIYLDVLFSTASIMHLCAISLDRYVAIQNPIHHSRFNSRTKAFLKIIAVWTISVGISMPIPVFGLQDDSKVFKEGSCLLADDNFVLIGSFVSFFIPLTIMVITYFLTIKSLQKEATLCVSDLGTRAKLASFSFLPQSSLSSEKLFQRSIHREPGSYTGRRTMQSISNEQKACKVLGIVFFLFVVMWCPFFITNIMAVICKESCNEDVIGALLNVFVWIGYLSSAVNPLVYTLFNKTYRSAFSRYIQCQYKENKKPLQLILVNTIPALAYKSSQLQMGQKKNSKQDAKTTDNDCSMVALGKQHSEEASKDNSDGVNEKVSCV
# TEST: Serotonin 5-HT2A radioligand binding ([3H]Ketanserin)
# ASSAY CONTEXT: compound concentration 0.3 μM; read-out: Percentage inhibition of ligand binding to 5-HT2A receptor
Consider the following compounds; for each one, report its inhibition at 0.3 µM.
Report only the number, with the unit % understood.

Would you please give the reported inhibition at 0.3 µM of C/C(=C\n1c2c(c3cc(Cl)ccc31)CCN(C)C2)c1ccc(F)cc1 with human recombinant serotonin (5-Hydroxytryptamine) 5-HT2A receptor (Homo sapiens)?
87

Would you please give the reported inhibition at 0.3 µM of C/C(=C\n1c2c(c3cc(C)ccc31)CCN(C)C2)c1ccc(F)cc1 with human recombinant serotonin (5-Hydroxytryptamine) 5-HT2A receptor (Homo sapiens)?
92

Would you please give the reported inhibition at 0.3 µM of Cc1ccc2c(c1)c1c(n2/C=C/c2ccccc2)CN(C)CC1 with human recombinant serotonin (5-Hydroxytryptamine) 5-HT2A receptor (Homo sapiens)?
83

Would you please give the reported inhibition at 0.3 µM of C/C(=C\n1c2c(c3cc(C)ccc31)CCN(C)C2C)c1ccccc1F (stereo not shown) with human recombinant serotonin (5-Hydroxytryptamine) 5-HT2A receptor (Homo sapiens)?
81
